Test system: OVCAR-8 ovarian
Assay: NCI tumour cell line growth inhibition, 48 h
Quantity Measured: GI50

What the record says about "CCc1ccc2c(c1)C(=O)c1c-2n(CCCN=[N+]=[N-])c(=O)c2cc(OC)c(OC)cc12" : GI50 is > 100 µM

Entry under test: "CCSc1nc(SCC)c2c(-c3ccc(OC)c(OC)c3)c(C#N)c(SCC)nc2n1" . Its GI50 was 43.8 µM

// GI50 lookup, molecule = CCC[CH2][Sn]1([CH2]CCC)[O]C2C(CO)OC(n3ccc(N)nc3=O)C2[O]1 (centres undefined) , result: 1.66 µM

Form: molecule = COc1ccc(C2=C(c3ccc(OC)c(OC)c3)C(=O)N3CCCC3C2)cc1 (centres undefined) ; GI50 = 21.7 µM

Measured GI50, CCOC(=O)C1CCCCN1C(=O)c1ccc(Nc2cnc3cc(C(F)(F)F)ccc3n2)cc1 (centres undefined) : 33.2 µM

Looking up "Cc1cnc(CNC(=O)c2c(=O)c3ccc(N4CCCN(C)CC4)nc3n3c2sc2ccccc23)cn1" , I see its GI50 listed as 1.09 µM

CC(C)(C)c1[nH]nc2c1C(c1cc3ccccc3[nH]c1=O)Nc1cc(C(=O)OCc3ccccc3)ccc1N2 (centres undefined) yielded GI50 of 5.5 µM

Data point: "CC[C@H](CO)Nc1nc(NCc2ccccc2)c2ncn(C(C)C)c2n1" ; GI50 = 29.3 µM

The reported value for "O=C1C(SCCO)=C(SCCO)C(=O)N1c1ccc(-c2ccccc2)cc1" in terms of GI50 is 2 µM

====

Record form. Attribute: TGI. Fill in for each entry.
System: UACC-257 melanoma
Test: NCI tumour cell line growth inhibition, 48 h

The reported value for "O=[N+]([O-])c1ccc(N=Nc2ccc(O)c3ccccc23)cc1" in terms of TGI is 14.6 µM

Quick note, TGI for "COc1ccc(CC2(Cc3ccc(OC)cc3)CCOC2=O)cc1" landed at > 100 µM

The value of TGI measured for the molecule "COc1ccc2nc3cccc([N+](=O)[O-])c3c(NCCCO)c2c1" turned out to be 0.0166 µM

Please fill in: TGI reported for "c1ccc(CSC2(SCc3ccccc3)CCCCC2)cc1" = > 10 µM

Field TGI (entry "CN1CCc2[nH]nc(-c3n[nH]c4c3CN(C)CC4)c2C1" ) reads > 100 µM

Short answer for "CC(=O)[CH-]C(=O)c1ccccc1.CC(=O)[CH-]C(=O)c1ccccc1.CC(=O)[CH-]C(=O)c1ccccc1.[In+3]" : TGI was > 100 µM

Looking up c1ccc2c(c1)OC(N1CCCC1)c1cnc(N3CCOCC3)nc1-2 (stereo not given) , I see its TGI listed as 74.2 µM

Recorded TGI (molecule "CC(=O)Oc1ccc2c3c1O[C@H]1[C@H](O)CC[C@@]4(O)[C@@H](C2)N(C)CC[C@]314" ): > 100 µM

Form: molecule = CC(=O)O[C@H]1CCC2[C@@H]3CCC4c5nonc5CC[C@]4(C)C3CC[C@@]21C (stereo not given in full) ; TGI = > 10 µM

Briefly, TGI measured for "COC(=O)Nc1nc2ccc(Oc3cccc(NC(=O)Nc4cc(C(F)(F)F)ccc4F)c3)cc2[nH]1" : > 25 µM

====

Field: TGI. Provide a value for each of the compounds that follow.
Test system: HL-60(TB) leukemia
Assay: NCI tumour cell line growth inhibition, 48 h

Short answer for O=C1CC(NCc2ccccc2)c2c(Cl)sc(Cl)c21 (stereo not drawn) : TGI was 41.6 µM

The value of TGI measured for the compound CN(C)CC1CCC2=C(C1=O)C(c1ccc(Cl)c(Cl)c1)C1=C(CCC(CN(C)C)C1=O)O2 (stereo not drawn) turned out to be 3.53 µM

Query "CCOC(=O)c1c(NC(=S)Nc2ccccc2)sc2c1CCOC2" yields TGI of > 100 µM

Consider "CN(C)c1ccc(C=C2C(=O)NC(=S)NC2=O)c2ccccc12" . Its measured TGI is > 100 µM

TGI in this record for CC(=O)O[C@H]1CCC2[C@@H]3CCC4c5nonc5CC[C@]4(C)C3CC[C@@]21C (stereo partly drawn) : > 100 µM

Entry "O=C(N/N=C/c1ccccc1)c1cccc2nc3ccccc3nc12" — recorded TGI = > 100 µM

Looking up "COc1ccc(CC(=O)c2ccc(O)cc2O)cc1" , I found its TGI recorded as > 100 µM

Consider CCCCCCCCC/C=C1\CCC(CN(C)C)C1=O (stereo not drawn) . Its measured TGI is 5.31 µM

====

Test system: MALME-3M melanoma
Test: NCI tumour cell line growth inhibition, 48 h
Quantity Measured: log10 of TGI (log10 of the value in µM)
Recorded TGI (log10, µM)

For reference, reported log10 of TGI for "COc1cc(/C=C/C(=O)c2ccc(F)cc2)ccc1OCCCN1CCN(CC(=O)Nc2ccc(Cl)cc2C(=O)c2ccccc2Cl)CC1" stands at 1.20

log10 of TGI in this record for "O=C(c1ccc(Cl)cc1)N(C(=S)OCCOc1ccccc1)c1ccccc1" : 1.85

Lab note: CC1=C(CCC(C)NCc2ccc(OCCCN3CCCCC3)cc2)C(C)(C)CCC1 (centres undefined) gave log10 of TGI of 0.52

# compound "COc1cc([N+](=O)[O-])c(OC)cc1-c1nc2sccn2c1/C=N/N=C(N)N" ; its log10 of TGI = 1.61

For "Oc1c(Cl)c(Cl)c(O)c2c1CCCC2" the compound record lists log10 of TGI as 0.98

For record CCOC(=O)C1CCCCN1C(=O)c1ccc(Nc2cnc3cc(C(F)(F)F)ccc3n2)cc1 (centres undefined) the listed log10 of TGI is 1.34

// field: log10 of TGI; key: "C[CH2][Sn]([CH2]C)([O]C(=O)c1ccccc1F)[O][Sn]([CH2]C)([CH2]C)[O]C(=O)c1ccccc1F" ; value = 1.48

Looking up "CCc1cccc(C)c1NC(=O)C1=C(C)NC(C)=C(C(=O)Nc2c(C)cccc2CC)C1c1ccc2c(c1)OCO2" , I see its log10 of TGI listed as 1.48

log10 of TGI for CC(C)(C)c1[nH]nc2c1C(c1cc3ccccc3[nH]c1=O)Nc1cc(C(=O)OCc3ccccc3)ccc1N2 (centres undefined) is 0.87

Recorded log10 of TGI (compound "CCOC(=O)c1nnc2c(C#N)c(-c3ccccc3)c(C)n2c1N" ): 1.81

====

For each entry below, report its TGI value.
Test system: NCI-H460 lung
Experiment: NCI tumour cell line growth inhibition, 48 h

So for "COc1ccc(/C=C(\C(=O)NCc2cccnc2)S(=O)(=O)c2ccccc2)cc1OC" , the logged TGI turned out to be 6.67 µM

Measured TGI, "Nc1ccccc1C#C/C=C\C#Cc1cccc(O)c1" : > 34.2 µM

The value of TGI measured for the molecule "Cn1cccc1-c1cc(-c2ccc(Br)cc2)[nH]c(=O)c1C#N" turned out to be > 100 µM

Briefly, TGI measured for "O=C(c1ccccc1)N1C(=S)N(c2ccccn2)C(=Nc2ccccc2)C1=Nc1ccccc1" : > 70.6 µM

Short answer for "Cc1[nH]c(=O)nc(NNCc2ccc(Cl)cc2)c1C(=O)Nc1ccc(Cl)cc1" : TGI was > 100 µM

So for CC(C)(C)c1[nH]nc2c1C(c1cc3ccccc3[nH]c1=O)Nc1cc(C(=O)OCc3ccccc3)ccc1N2 (configuration not stated) , the logged TGI turned out to be > 100 µM

Please fill in: TGI reported for "Cc1ccc2c(=O)c3ccccc3sc2c1" = > 100 µM

Entry "O=C(c1cc2c(c3ccccc13)NC1(CCCCC1)N=C2C(F)(F)F)C(F)(F)F" — recorded TGI = 10.9 µM

For this molecule ( CC1=CC2c3cccc4[nH]cc(c34)CC2N(C)C1 (configuration not stated) ), measured TGI is > 100 µM

"Cc1cnc2[nH]c(-c3ccc4ccccc4c3)cc(=O)c2c1" yielded TGI of > 100 µM

Kindly note the recorded TGI for CCOC1CC(C)N(C(=O)c2ccccc2)O1 (configuration not stated) , which is > 100 µM

Record summary for "CC(=O)[CH-]C(=O)c1ccccc1.CC(=O)[CH-]C(=O)c1ccccc1.CC(=O)[CH-]C(=O)c1ccccc1.[In+3]" : reported TGI = > 100 µM

Field TGI (entry "Cc1ccc(N/C(SCc2ccccc2)=C(\C(Cl)=C(Cl)Cl)[N+](=O)[O-])c(C)c1" ) reads > 100 µM

Data point: "Cc1cnc(CNC(=O)c2c(=O)c3ccc(N4CCCN(C)CC4)nc3n3c2sc2ccccc23)cn1" ; TGI = 2.14 µM

Please fill in: TGI reported for O=C(O)C(CS)NCc1c2ccccc2nc2ccccc12 (configuration not stated) = > 100 µM

The reported value for "CCc1ccc2c(c1)C(=O)c1c-2n(CCCN=[N+]=[N-])c(=O)c2cc(OC)c(OC)cc12" in terms of TGI is > 100 µM

Lab note: measured TGI of CC(C)CCNCC(O)Cn1c2ccccc2c2ccccc21 (configuration not stated) was 13.7 µM

Looking up "CC(C)NC(=O)OCc1c2c(n(C)c1COC(=O)NC(C)C)-c1ccccc1CC2" , I see its TGI listed as 28.8 µM

Quick note, TGI for COc1ccc(COC2CC(OC)OC(C)C2OC(=O)c2ccccc2)cc1 (configuration not stated) landed at > 100 µM

Reported TGI for CC1(C)N=C(C2CCCN2C(=O)OCc2ccccc2)OC1=O (configuration not stated) was > 100 µM

The value of TGI measured for the molecule "CCO/C=N/C1=C(C#N)SC2=N/C(=C\c3ccccc3)C(=O)N21" turned out to be > 100 µM

// TGI value for "CN(C)C(=O)c1ccc([N+](=O)[O-])cc1" : > 100 µM
